System: RPMI-8226 leukemia
Assay: NCI tumour cell line growth inhibition, 48 h
measured-metric: TGI (µM)
Give the number; µM is assumed, so skip it.

### Prompt // Input: CO/N=C(\C)c1ccc(Nc2cc(-c3ccccc3)nc3c(O)cccc23)cc1 . Output its TGI only.
### Response 37

### Prompt // Input: C=C1C(=O)O[C@H]2[C@H]1CC/C(COC(=O)N1CCC[C@H]1C(=O)Nc1ccc(OC)c(C(N)=O)c1O)=C\CC[C@@]1(C)O[C@@H]21 . Output its TGI only.
### Response 4.87

### Prompt // Input: OC1COC(n2c3ccc(Br)cc3c3ccc4c5ccccc5[nH]c4c32)C(O)C1O (centres undefined) . Output its TGI only.
### Response 15.8

### Prompt // Input: Cc1nc2sc(C(=O)Nc3ccccc3)c(N)c2cc1C(=O)/C=C/c1ccccc1 . Output its TGI only.
### Response 5.2

### Prompt // Input: ClCc1c(Cl)c(Cl)c(Cl)c(CCl)c1Cl . Output its TGI only.
### Response 4.24

### Prompt // Input: CNC1=CC(=O)C2=C(C1=O)[C@H]1CC[C@]3(C)C(=O)CC[C@H]3[C@@H]1CC2 . Output its TGI only.
### Response 48.5

====

Test system: SNB-19 CNS
Assay: NCI tumour cell line growth inhibition, 48 h
Please provide measured TGI for the entries that follow.

### Prompt // Input: COc1ccc(CC2NC(=O)/C=C/CC(C(C)C3OC3c3ccccc3)OC(=O)C(CC(C)C)OC(=O)C(C)CNC2=O)cc1Cl (centres undefined) . Output its TGI only.
### Response > 0.1 µM

### Prompt // Input: COc1cc(Nc2nc(N[C@H]3CCCC[C@@H]3N)nc3cc[nH]c(=O)c23)cc(OC)c1 . Output its TGI only.
### Response 16.7 µM

### Prompt // Input: CC(=O)n1c2ccccc2c2nc3nc(Oc4ccc(C)cc4)c4ccccc4c3cc21 . Output its TGI only.
### Response > 100 µM

### Prompt // Input: CCCCCCCCCCCCCCCC(=O)OCC1OC(n2c(O)c(N=NC(N)=S)c3ccc([N+](=O)[O-])cc32)C(OC(C)=O)C1OC(C)=O (centres undefined) . Output its TGI only.
### Response > 100 µM

### Prompt // Input: CCC(C)C(=O)c1c(O)c(C/C=C(\C)CCC=C(C)C)c(O)c2c(C(O)CC)cc(=O)oc12 (centres undefined) . Output its TGI only.
### Response 16.2 µM

### Prompt // Input: O=C(CN1CCN(c2ccccc2)CC1)N1CCc2c([nH]c3ccccc23)C1c1cccnc1 (centres undefined) . Output its TGI only.
### Response > 100 µM

### Prompt // Input: COc1ccc2c(c1)OC(N(C(C)=O)C(C)=O)=C(C#N)C2c1ccc(F)cc1 (centres undefined) . Output its TGI only.
### Response > 100 µM

### Prompt // Input: NC(C(=O)[O-])C(=O)[O-].NC1CCCCC1N.[Pt+4] . Output its TGI only.
### Response > 100 µM

### Prompt // Input: COc1cc[n+](C)cc1 . Output its TGI only.
### Response > 100 µM

====

Tested on: SK-OV-3 ovarian
Assay: NCI tumour cell line growth inhibition, 48 h
Please provide measured TGI for the entries that follow.

### Prompt Supply TGI measured with SK-OV-3 ovarian for N#C/C(=C\c1cccc(O)c1)C(N)=O .
### Response > 100 µM

### Prompt Supply TGI measured with SK-OV-3 ovarian for COc1ccc(-c2cc(-c3cc(OC)c(OC)c(OC)c3)cc(-c3cc4ccccc4oc3=O)n2)cc1 .
### Response 14.5 µM

### Prompt Supply TGI measured with SK-OV-3 ovarian for COC(=O)c1cc(C#Cc2cc(OC)ccc2OC)ccc1OC .
### Response > 100 µM

### Prompt Supply TGI measured with SK-OV-3 ovarian for Clc1nc(Cl)c2ncn(Cc3ccc(COc4cccc(OCc5ccc(Cn6cnc7c(Cl)nc(Cl)nc76)cc5)c4)cc3)c2n1 .
### Response > 100 µM

### Prompt Supply TGI measured with SK-OV-3 ovarian for Brc1ccc2[nH]cc(-c3nc(-c4c[nH]c5ccccc45)cs3)c2c1 .
### Response 21.4 µM

### Prompt Supply TGI measured with SK-OV-3 ovarian for C[C@H]1[C@H](C)CC[C@]2(C(=O)O)CC[C@]3(C)C(=CC[C@@H]4[C@@]5(C)C/C(=C/c6cccnc6)[C@H](O)C(C)(C)[C@@H]5CC[C@]43C)[C@H]12 .
### Response > 100 µM

### Prompt Supply TGI measured with SK-OV-3 ovarian for COc1ccc(C(C#N)NNc2nc(C)cc(=O)[nH]2)cc1OC (stereo not given) .
### Response > 100 µM

### Prompt Supply TGI measured with SK-OV-3 ovarian for CN(C)CCCN1CCc2c([nH]c3ccccc23)C1c1cccnc1 (stereo not given) .
### Response > 100 µM

### Prompt Supply TGI measured with SK-OV-3 ovarian for CC(=O)OC1c2ccccc2CCCCCCC12OCCO2 (stereo not given) .
### Response > 100 µM

### Prompt Supply TGI measured with SK-OV-3 ovarian for Cc1cc2c3ccccc3n(C)c2c2c1C(=O)C=CC2=O .
### Response 53.4 µM

====

Please provide measured TGI for the entries that follow.
Tested on: SW-620 colon
Assay: NCI tumour cell line growth inhibition, 48 h

### Prompt // Input: Cc1ccc(NC(=O)/C(=N\Nc2ccc([N+](=O)[O-])cc2[N+](=O)[O-])C2C(=O)NC(=O)NC2=O)cc1 . Output its TGI only.
### Response > 100 µM

### Prompt // Input: CN1CN(c2ccccc2)C2(CCN(CCc3csc4ccccc34)CC2)C1=O . Output its TGI only.
### Response 39.3 µM

### Prompt // Input: CCN(Cc1ccccc1OC)c1ccc(CO)c(Cl)c1 . Output its TGI only.
### Response 17.5 µM

### Prompt // Input: ClCc1c(Cl)c(Cl)c(Cl)c(CCl)c1Cl . Output its TGI only.
### Response 3.12 µM

### Prompt // Input: C=CC[C@H]1[C@H](O[Si](C)(C)C(C)(C)C)C=CC(=O)[C@@H]1CC(=O)N(Cc1ccccc1)Cc1ccccc1 . Output its TGI only.
### Response > 100 µM

### Prompt // Input: CCC(C)C(=O)c1c(O)c(C/C=C(\C)CCC=C(C)C)c(O)c2c(C(O)CC)cc(=O)oc12 (stereo not drawn) . Output its TGI only.
### Response 14 µM

### Prompt // Input: Cc1ccc(C(O)c2cnc(C)n2Cc2ccccc2)cc1 (stereo not drawn) . Output its TGI only.
### Response > 100 µM

### Prompt // Input: COc1cccc(NC(=O)CC(=O)N2N=C(C)C(N=Nc3ccc(S(=O)(=O)c4ccc(N=NC5C(=O)N(C(=O)CC(=O)Nc6cccc(OC)c6)N=C5C)cc4)cc3)C2=O)c1 (stereo not drawn) . Output its TGI only.
### Response > 100 µM

====

System: ACHN renal
Test: NCI tumour cell line growth inhibition, 48 h
measured-metric: TGI

### Prompt // Input: N#CC1(C#N)NC(c2ccsc2)C(C#N)(C#N)NC1c1ccsc1 (stereo not given) . Output its TGI only.
### Response > 100 µM

### Prompt // Input: CC1(C)CC(=O)c2c(nc3ccc4ccccc4c3c2-c2ccc(NC(=O)CCC(=O)Nc3ccc(-c4c5c(nc6ccc7ccccc7c46)CC(C)(C)CC5=O)cc3)cc2)C1 . Output its TGI only.
### Response > 100 µM

### Prompt // Input: CCCCCCCCCCCCCCCC(=O)OCC1OC(n2c(O)c(N=NC(N)=S)c3ccc([N+](=O)[O-])cc32)C(OC(C)=O)C1OC(C)=O (stereo not given) . Output its TGI only.
### Response > 100 µM

### Prompt // Input: CN=S(=O)(c1ccccc1)c1ccccc1 . Output its TGI only.
### Response > 100 µM

### Prompt // Input: NC(=O)N1N=C2c3ccccc3SC[C@H]2[C@@H]1c1ccccc1 . Output its TGI only.
### Response > 100 µM

### Prompt // Input: COc1ccc2c3c(c(=O)n(C)c2c1OC)C=CC(C)(C)O3 . Output its TGI only.
### Response 27.5 µM

### Prompt // Input: CCOC(=O)NN1C(=O)C(=P(c2ccccc2)(c2ccccc2)c2ccccc2)C(C(=O)OCC)=C1C . Output its TGI only.
### Response > 100 µM

### Prompt // Input: CC1(C)N=C(N)N=C(N)N1c1cccc(OCCOc2ccc([N+](=O)[O-])cc2)c1 . Output its TGI only.
### Response > 100 µM

### Prompt // Input: CN(C)C(=S)N=Nc1c(O)[nH]c2ccccc12 . Output its TGI only.
### Response 11.4 µM

### Prompt // Input: COc1ccc2oc3cccc(NCCN(C)C)c3c(=O)c2c1 . Output its TGI only.
### Response 23.2 µM

### Prompt // Input: COc1cc(-c2cn(-c3ccc(Cl)cc3)c(C)c2C(=O)C(F)(F)F)cc(OC)c1OC . Output its TGI only.
### Response > 100 µM

### Prompt // Input: COc1ccccc1N1CCN(Cn2c(=O)oc3cccnc32)CC1 . Output its TGI only.
### Response > 100 µM

### Prompt // Input: CCOC(=O)/C=C(\C)c1ccc(OC)cc1 . Output its TGI only.
### Response > 100 µM

### Prompt // Input: COc1cccc(-c2cc(=O)c3c(C)ccnc3[nH]2)c1 . Output its TGI only.
### Response > 100 µM

### Prompt // Input: COc1ccc(-c2cncn2-c2ccc(OC)cc2)cc1 . Output its TGI only.
### Response 60.4 µM

### Prompt // Input: Fc1cccc(COc2ccc(Nc3ncnc4cc(-c5ccc[nH]5)sc34)cc2Cl)c1 . Output its TGI only.
### Response > 16.8 µM

### Prompt // Input: COC(=O)c1c(C)cccc1/C=C1\Cc2cc(C)cc(C)c2C1=O . Output its TGI only.
### Response > 100 µM

### Prompt // Input: COC(=O)CCC12CCC(O1)c1ccccc12 (stereo not given) . Output its TGI only.
### Response > 100 µM

### Prompt // Input: COC(=O)c1cc(C#Cc2cc(OC)ccc2OC)ccc1OC . Output its TGI only.
### Response > 100 µM

### Prompt // Input: COc1cccc(C2c3cc4c(cc3OC(O)(CO)C2C(=O)O)OCO4)c1 (stereo not given) (tested in a mixture with another compound) . Output its TGI only.
### Response > 100 µM

### Prompt // Input: C[C@@H]1COCCN1c1cc(C2(S(C)(=N)=O)CC2)nc(-c2ccnc3[nH]ccc23)n1 (stereo not given in full) . Output its TGI only.
### Response 4.3 µM

### Prompt // Input: COc1ccc(NC(=O)/C(=C/c2ccc(N(CCC#N)CCC#N)cc2)NC(=O)c2cc([N+](=O)[O-])ccc2Cl)cc1 . Output its TGI only.
### Response 59.5 µM

### Prompt // Input: CN(CCc1ccc(N)cc1)[C@H]1CCCC[C@H]1N1CCCC1 . Output its TGI only.
### Response > 100 µM

### Prompt // Input: Cc1cccc(C(O)c2ccncc2)c1O (stereo not given) . Output its TGI only.
### Response > 100 µM

### Prompt // Input: CCC(=O)O[C@H]1CC[C@H]2[C@@H]3CCC4=C/C(=N/NC(=O)c5cccc6c(=O)c7ccccc7[nH]c56)CC[C@]4(C)[C@H]3CC[C@]12C . Output its TGI only.
### Response > 25 µM
